- measurement-target: porcine beta-2 adrenoceptor (Sus scrofa, UniProt Q28997)
- Sequence (Q28997 whole entry): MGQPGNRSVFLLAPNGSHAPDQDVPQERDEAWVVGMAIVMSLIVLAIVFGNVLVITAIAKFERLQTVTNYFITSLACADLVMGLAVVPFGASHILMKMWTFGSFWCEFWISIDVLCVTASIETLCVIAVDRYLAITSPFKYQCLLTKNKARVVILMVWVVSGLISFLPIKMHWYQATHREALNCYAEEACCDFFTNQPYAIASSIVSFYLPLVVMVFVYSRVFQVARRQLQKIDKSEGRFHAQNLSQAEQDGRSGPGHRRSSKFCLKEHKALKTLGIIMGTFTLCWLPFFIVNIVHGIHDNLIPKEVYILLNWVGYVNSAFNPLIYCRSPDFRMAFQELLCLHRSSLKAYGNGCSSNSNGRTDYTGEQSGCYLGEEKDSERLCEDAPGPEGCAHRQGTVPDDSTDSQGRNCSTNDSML
- assay-summary: cAMP assay in CHO cells transfected with the porcine beta-2 adrenoceptor
- condition-summary: cAMP (DiscoveRx Hit Hunter cAMP II) in CHO cells transfected with porcine beta-2 adrenoceptor, 30 minutes with compound, 0.5 mM IBMX
readout-kind: EC50 (nM)
One number for each entry, in nM.

Example entries and their recorded answers appear below.
- compound: "CC(CCc1ccccc1)N[C@@H]1CCn2c(=O)[nH]c3cccc(c32)[C@H]1O (single isomer, unassigned) [Example 9d]"
  measurement-target: "porcine beta-2 adrenoceptor (Sus scrofa, UniProt Q28997)"
  readout-kind: "EC50"
  readout-unit: "nM"
  recorded-measurement: 2.3
- compound: "CC(CCc1cccc(O)c1Cl)N[C@@H]1CCn2c(=O)[nH]c3cccc(c32)[C@H]1O (single isomer, unassigned)"
  measurement-target: "porcine beta-2 adrenoceptor (Sus scrofa, UniProt Q28997)"
  readout-kind: "EC50"
  readout-unit: "nM"
  recorded-measurement: 1.3

Hello, I would appreciate it if you could give EC50 for each entry below.
1. CC(CCc1cccc(Cl)c1O)N[C@@H]1CCn2c(=O)[nH]c3cccc(c32)[C@H]1O (single isomer, unassigned) [Example 5a]
2. CCC(=O)Nc1cccc(CCC(C)NC2CCn3c(=O)[nH]c4cccc(c43)C2O)c1 (single isomer, unassigned)

Result string:
1: 473; 2: 12.5
